Cited source: ChEMBL document CHEMBL1147281

test: Cytotoxicity against human colon cancer cells after 72 hrs; format: functional; settings: Cancer cell lines, read-out: ED50 (the source's name)

compound	readout relation	EC50 / µg/mL
CC(=O)C1=C(O)C(C)(C)C(O)=C(Cc2c(O)c3c(c(C(C)=O)c2O)OC(C)(C)C=C3)C1=O [DRUMMONDIN C]	=	11
CC(=O)C1=C(O)C(C)(C)C(O)=C(CC2=C(O)C(C)(C)C(O)=C(C(C)=O)C2=O)C1=O	>	50
CCC(=O)C1=C(O)C(C)(C)C(O)=C(Cc2c(O)c3c(c(C(C)=O)c2O)OC(C)(C)C=C3)C1=O [DRUMMONDIN B]	=	6.3
CCC(=O)C1=C(O)C(C)(C)C(O)=C(CC2=C(O)C(C)(C)C(O)=C(C(=O)CC)C2=O)C1=O	>	50
CC(=O)C1=C(O)C(C)(CC=C(C)C)C(O)=C(Cc2c(O)c(CC=C(C)C)c(O)c(C(C)=O)c2O)C1=O (stereo unspecified) [DRUMMONDIN F]	=	42
CCC(=O)C1=C(O)C(C)(C)C(O)=C(Cc2c(O)c3c(c(C(=O)CC)c2O)OC(C)(C)C=C3)C1=O [DRUMMONDIN A]	=	6.6

----------
test system: Mycolicibacterium smegmatis; assay: Antimicrobial activity against Mycobacterium smegmatis ATCC 607 after 48 hrs by twofold serial dilution method; type: functional; conditions: ATCC 607, 48 h
Assign labels as follows, please: Satisfied for MIC below 3 µg/mL; Not satisfied for MIC equal to or exceeding 3 µg/mL.

compound	label value
CCC(=O)C1=C(O)C(C)(C)C(O)=C(Cc2c(O)c3c(c(C(=O)CC)c2O)OC(C)(C)C=C3)C1=O	Satisfied
CC(=O)C1=C(O)C(C)(CC=C(C)C)C(O)=C(Cc2c(O)c(CC=C(C)C)c(O)c(C(C)=O)c2O)C1=O (configuration not stated)	Satisfied
CC(=O)C1=C(O)C(C)(C)C(O)=C(Cc2c(O)c3c(c(C(C)=O)c2O)OC(C)(C)C=C3)C1=O	Not satisfied
CCC(=O)C1=C(O)C(C)(C)C(O)=C(Cc2c(O)c3c(c(C(C)=O)c2O)OC(C)(C)C=C3)C1=O	Satisfied
CN[C@@H]1[C@H](O[C@H]2[C@H](O[C@H]3[C@H](O)[C@@H](O)[C@H](N=C(N)N)[C@@H](O)[C@@H]3N=C(N)N)O[C@@H](C)[C@]2(O)C=O)O[C@@H](CO)[C@H](O)[C@H]1O	Not satisfied
CCC(=O)C1=C(O)C(C)(C)C(O)=C(CC2=C(O)C(C)(C)C(O)=C(C(=O)CC)C2=O)C1=O	Not satisfied
CC(=O)C1=C(O)C(C)(C)C(O)=C(CC2=C(O)C(C)(C)C(O)=C(C(C)=O)C2=O)C1=O	Not satisfied

----------
test system: P388; test: Cytotoxicity against mouse P388 cells after 48 hrs; format: functional; conditions: P388, 48 h, read-out: ED50 (the source's name)
Below, each of the molecules is paired with its reported EC50 value.
reported metric: EC50 (µg/mL)

molecule	reported metric	readout relation	experimental value
CCC(=O)C1=C(O)C(C)(C)C(O)=C(Cc2c(O)c3c(c(C(C)=O)c2O)OC(C)(C)C=C3)C1=O [DRUMMONDIN B]	EC50	=	1.9
CCC(=O)C1=C(O)C(C)(C)C(O)=C(Cc2c(O)c3c(c(C(=O)CC)c2O)OC(C)(C)C=C3)C1=O [DRUMMONDIN A]	EC50	=	2.1
CCC(=O)C1=C(O)C(C)(C)C(O)=C(CC2=C(O)C(C)(C)C(O)=C(C(=O)CC)C2=O)C1=O	EC50	>	50
CC(=O)C1=C(O)C(C)(CC=C(C)C)C(O)=C(Cc2c(O)c(CC=C(C)C)c(O)c(C(C)=O)c2O)C1=O (stereo unspecified) [DRUMMONDIN F]	EC50	=	21
CC(=O)C1=C(O)C(C)(C)C(O)=C(CC2=C(O)C(C)(C)C(O)=C(C(C)=O)C2=O)C1=O	EC50	>	50
CC(=O)C1=C(O)C(C)(C)C(O)=C(Cc2c(O)c3c(c(C(C)=O)c2O)OC(C)(C)C=C3)C1=O [DRUMMONDIN C]	EC50	=	2.8
